Test system: SK-MEL-28 melanoma
Assay: NCI tumour cell line growth inhibition, 48 h
observed-property: TGI

INSERT INTO assay_data (compound, value_observed) VALUES
  ('OC1C(O)C(O)C(O)C(O)C1O (configuration not stated)', '> 1000 µM'),
  ('Cc1ccc(S(=O)(=O)Oc2ccc3c4c(c(=O)oc3c2)CCCCC4)cc1', '> 100 µM'),
  ('Cc1ccc(C(=O)CC(Cl)=C(Cl)Cl)cc1', '> 100 µM'),
  ('O=C1CN(c2ccc(Cl)cc2)C(=O)CN1CCN1CC(=O)N(c2ccc(Cl)cc2)CC1=O', '> 100 µM'),
  ('O=C1Oc2ccccc2C(=O)/C1=C/N1C(=O)/C(=C/c2ccc([N+](=O)[O-])cc2)SC1=S', '85.7 µM'),
  ('CCCCCCCCCCCCCCCCCCNc1ccn(C2OC(COP(=O)(O)O)C(O)C2O)c(=O)n1 (configuration not stated)', '> 100 µM'),
  ('CCSc1nc2sc(C)c(C)c2c(=O)n1-c1ccc(C(=O)O)cc1', '> 100 µM'),
  ('O=C(Nc1cnn2ccc(N3CCC[C@@H]3c3cc(F)ccc3F)nc12)N1CC[C@H](O)C1', '> 100 µM'),
  ('CCc1cccc(CC)c1NC(=S)NC(=O)c1ccc(Br)cc1', '> 100 µM'),
  ('Cc1ccc(N=C2CSc3nnc(-c4csc5c4CCCC5)n3N2)cc1', '> 50 µM'),
  ('C=C(C)CCC1CCCCC(CN(C)C)C1=O (configuration not stated)', '> 100 µM'),
  ('Nc1nc2c(c3ncccc13)C(c1cccc(Cl)c1)Cc1ncccc1-2 (configuration not stated)', '28.4 µM'),
  ('O=C1C=CC(=O)C1(Br)Br', '21.8 µM'),
  ('Cc1cc2c(cc1O)CC[C@@H]1[C@@H]2CC[C@]2(C)[C@@H](O)CC[C@@H]12', '27.3 µM'),
  ('N#C/C(=C\c1ccc(Br)cc1)n1nnc2cccc(F)c21', '3.97 µM'),
  ('CCOC(=O)CCC(NC(=O)c1ccc(CNc2nc3cc(N)cc(N)c3nc2-c2ccccc2)cc1)C(=O)OCC (configuration not stated)', '66.6 µM'),
  ('Nc1ccc(C#Cc2cncnc2Nc2ccc(OCc3cccc(F)c3)c(Cl)c2)cc1', '> 25 µM'),
  ('O=S(=O)(NC(=S)Nc1ccccc1)c1ccc(N2N=C3c4ccccc4CC3C2c2cccs2)cc1 (configuration not stated)', '> 100 µM'),
  ('N#CC1C(=N)Cc2ccccc2-c2ccccc21 (configuration not stated)', '30.3 µM'),
  ('COc1ccc2cc(C(=O)/C=C/c3cccc(Cl)c3Cl)ccc2c1', '> 71.9 µM'),
  ('NC(=O)c1n[nH]n(-c2ccccc2)c1=O', '> 100 µM'),
  ('O=C(O)c1c(CC(Cc2ccc3c(c2)CCCC3)C(=O)O)ccc2c1CCCC2 (configuration not stated)', '> 100 µM');
